System: CASOB (Cassia obtusifolia)
Assay: Postemergence herbicidal evaluation
Format: in vivo, L.
Conditions: rate 0.1250 kg/ha
Could you please mark label 1 for values of Postemergence herbicidal rating, CASOB below 7 and label 0 for values at or above it?

Reference set, count: 5
| SMILES STRUCTURE | CATEGORY |
| --- | --- |
| Cn1c(C(F)(F)F)cc(=O)n(-c2ccc3snc(-c4ccccn4)c3c2)c1=O | label 0 |
| Cc1ccsc1-c1nsc2ccc(-n3c(=O)cc(C(F)(F)F)n(C)c3=O)cc12 | label 0 |
| COC(=O)COc1ccsc1-c1nsc2ccc(-n3c(=O)cc(C(F)(F)F)n(C)c3=O)cc12 | label 1 |
| Cc1csc(-c2nsc3ccc(-n4c(=O)cc(C(F)(F)F)n(C)c4=O)cc23)n1 | label 1 |
| Cc1cccnc1-c1nsc2cc(F)c(N3C(=O)C4=C(CCCC4)C3=O)cc12 | label 0 |

Postemergence herbicidal rating, CASOB under 7? Item: `Cc1ccc(-c2nsc3ccc(N4C(=O)C5=C(CCCC5)C4=O)cc23)s1`
label 1

Is Postemergence herbicidal rating, CASOB of `CN(C(=O)c1nsc2ccc(-n3c(=O)cc(C(F)(F)F)n(C)c3=O)cc12)c1ccc(Cl)cc1` strictly below 7?
label 1

Hello, I'm reviewing records and need to know if Postemergence herbicidal rating, CASOB of `Cc1ccc(-c2nsc3ccc(-n4c(=O)cc(C(F)(F)F)n(C)c4=O)cc23)nc1` is below 7. Could you check?
label 1

# check: Postemergence herbicidal rating, CASOB < 7 for `Cn1c(C(F)(F)F)cc(=O)n(-c2ccc3snc(-c4cccs4)c3c2)c1=O`
label 0
